# Measurement Parameters: in ethyl acetate, 318.2 K
Metric Name: solubility (mole fraction)

State its solubility (mole fraction) for this compound: `COc1c(C)c2c(c(O)c1C/C=C(\C)CCC(=O)OCCN1CCOCC1)C(=O)OC2` 0.0928

====

# Measurement Parameters: in PEG-400, 303.2 K
Metric Name: solubility (mole fraction)
Lab note: record just the number, no unit beside it.

Using known records, supply solubility (mole fraction) for `COc1c(C)c2c(c(O)c1C/C=C(\C)CCC(=O)OCCN1CCOCC1)C(=O)OC2` 0.0312

====

# Measurement Parameters: in water, 318.2 K
Metric Name: solubility (mole fraction)
Lab note: jot the number down without any unit.

Output solubility (mole fraction) of `COc1c(C)c2c(c(O)c1C/C=C(\C)CCC(=O)OCCN1CCOCC1)C(=O)OC2` 4.16e-06

====

# Measurement Parameters: in water, 298.2 K
Metric Name: solubility (mole fraction)
Just the number, please, no unit attached.

Given `COc1c(C)c2c(c(O)c1C/C=C(\C)CCC(=O)OCCN1CCOCC1)C(=O)OC2` , respond with its solubility (mole fraction). 1.75e-06

====

# Measurement Parameters: in ethyl acetate, 303.2 K
Metric Name: solubility (mole fraction)
# answer = number (no unit)

State its solubility (mole fraction) for this compound: `COc1c(C)c2c(c(O)c1C/C=C(\C)CCC(=O)OCCN1CCOCC1)C(=O)OC2` 0.0744

====

# Measurement Parameters: in DMSO, 313.2 K
Metric Name: solubility (mole fraction)
Kindly provide the number alone.

Please supply the value of reported solubility (mole fraction) for the item `COc1c(C)c2c(c(O)c1C/C=C(\C)CCC(=O)OCCN1CCOCC1)C(=O)OC2` 0.0388

====

# Measurement Parameters: in isopropanol, 318.2 K
Metric Name: solubility (mole fraction)

Check the records and state solubility (mole fraction) for `COc1c(C)c2c(c(O)c1C/C=C(\C)CCC(=O)OCCN1CCOCC1)C(=O)OC2` 0.0121

====

# Measurement Parameters: in PEG-400, 308.2 K
Metric Name: solubility (mole fraction)
I only need the number, thanks.

Answer with reported solubility (mole fraction) of `COc1c(C)c2c(c(O)c1C/C=C(\C)CCC(=O)OCCN1CCOCC1)C(=O)OC2` 0.0355

====

# Measurement Parameters: in transcutol, 313.2 K
Metric Name: solubility (mole fraction)
The answer should be a number; do not append a unit.

Specify solubility (mole fraction) for `COc1c(C)c2c(c(O)c1C/C=C(\C)CCC(=O)OCCN1CCOCC1)C(=O)OC2` and stop. 0.0486

====

# Measurement Parameters: in transcutol, 308.2 K
Metric Name: solubility (mole fraction)
Form field (numeric): enter value without unit.

Consider the compound `COc1c(C)c2c(c(O)c1C/C=C(\C)CCC(=O)OCCN1CCOCC1)C(=O)OC2` and give its recorded solubility (mole fraction). 0.0452

====

# Measurement Parameters: in ethyl acetate, 313.2 K
Metric Name: solubility (mole fraction)
Form field (numeric): enter value without unit.

Please give the documented solubility (mole fraction) of `COc1c(C)c2c(c(O)c1C/C=C(\C)CCC(=O)OCCN1CCOCC1)C(=O)OC2` 0.0856

====

# Measurement Parameters: in n-butanol, 313.2 K
Metric Name: solubility (mole fraction)
Number only, please.

Provide one value: measured solubility (mole fraction) of `COc1c(C)c2c(c(O)c1C/C=C(\C)CCC(=O)OCCN1CCOCC1)C(=O)OC2` 0.0144

Provenance of the data: BigSolDB 2.1
